Reference for the values: patent US20260097036A1

Test: Part 2 relative bioavailability and food effect, plasma PK
Format: in vivo, human
Conditions: male, human, plasma, po, 200 mg, Regimen I: 200 mg Liquid Formulation, Fed; single oral dose; plasma; geometric mean (CV%); read-out: Cmax
measureName: Cmax (ng/mL)

(A) CC(C)NC(=O)COc1cccc(-c2nc(Nc3ccc4[nH]ncc4c3)c3ccccc3n2)c1 [Belumosudil, reference compound]
(B) O=C(O)COc1cccc(-c2nc(Nc3ccc4[nH]ncc4c3)c3ccccc3n2)c1
In: Between A and B , which one has the lower reported Cmax value? Let me know the label of the one you choose.
Out: B

====

Test: Part 2 relative bioavailability and food effect, plasma PK
Assay type: in vivo, human
Conditions: male, human, plasma, oral, 200 mg, plasma, tablet reference 200 mg, fed; read-out: geometric mean T1/2 (converted)
Method: Subjects underwent preliminary screening procedures to determine their eligibility for Part 2 of the study at the screening visit (Day −28 to Day −2 of Part 2). Subjects who took part in Part 1 of the study were permitted to take part in Part 2. Three different regimens (G, H, and I), were used over the three periods. In Regimen G, belumosudil was administered in Tablet form (reference); and in Regimens H and I, belumosudil was administered in the form of Oral Liquid Formulation. […]
measureName: half-life (h)
The figure you give is taken to be in h; do not add the unit.

In: Give the measured half-life of O=C(O)COc1cccc(-c2nc(Nc3ccc4[nH]ncc4c3)c3ccccc3n2)c1 [KD025m2] .
Out: 2.47

====

Assay: Part 2 relative bioavailability and food effect, plasma PK
Assay type: in vivo, human
Conditions: male, human, plasma, po, 200 mg, Regimen G: 200 mg Tablet, Fed; single oral dose, healthy male volunteers; plasma; median (range); read-out: Tmax
Procedure: Subjects underwent preliminary screening procedures to determine their eligibility for Part 2 of the study at the screening visit (Day −28 to Day −2 of Part 2). Subjects who took part in Part 1 of the study were permitted to take part in Part 2. Three different regimens (G, H, and I), were used over the three periods. In Regimen G, belumosudil was administered in Tablet form (reference); and in Regimens H and I, belumosudil was administered in the form of Oral Liquid Formulation. […]
measureName: Tmax (h)

>  <compound>
O=C(O)COc1cccc(-c2nc(Nc3ccc4[nH]ncc4c3)c3ccccc3n2)c1

>  <unitOfMeasurement>
h

>  <val>
3

$$$$
>  <compound>
CC(C)NC(=O)COc1cccc(-c2nc(Nc3ccc4[nH]ncc4c3)c3ccccc3n2)c1 [Belumosudil, reference compound]

>  <unitOfMeasurement>
h

>  <val>
3

$$$$

====

Test: Part 2 relative bioavailability and food effect, plasma PK
Assay type: in vivo, human
Details: male, human, plasma, po, 200 mg, Regimen H: 200 mg Liquid Formulation, Fasted; single oral dose; plasma; geometric mean (CV%); read-out: AUC (0-24)
Description: Subjects underwent preliminary screening procedures to determine their eligibility for Part 2 of the study at the screening visit (Day −28 to Day −2 of Part 2). Subjects who took part in Part 1 of the study were permitted to take part in Part 2. Three different regimens (G, H, and I), were used over the three periods. In Regimen G, belumosudil was administered in Tablet form (reference); and in Regimens H and I, belumosudil was administered in the form of Oral Liquid Formulation. […]
measureName: AUC(0-t) (ng·h/mL)

(a) O=C(O)COc1cccc(-c2nc(Nc3ccc4[nH]ncc4c3)c3ccccc3n2)c1
(b) CC(C)NC(=O)COc1cccc(-c2nc(Nc3ccc4[nH]ncc4c3)c3ccccc3n2)c1 [Belumosudil, reference compound]
In: Between a and b , which one has the lower reported AUC(0-t) value? Let me know the label of the one you choose.
Out: a
(a: 1130 ng·h/mL, b: 7620 ng·h/mL)

====

Assay: Part 2 relative bioavailability and food effect, plasma PK
Assay type: in vivo, human
Settings: male, human, plasma, po, 200 mg, Regimen H: 200 mg Liquid Formulation, Fasted; single oral dose, healthy male volunteers; plasma; median (range); read-out: Tmax
Protocol: Subjects underwent preliminary screening procedures to determine their eligibility for Part 2 of the study at the screening visit (Day −28 to Day −2 of Part 2). Subjects who took part in Part 1 of the study were permitted to take part in Part 2. Three different regimens (G, H, and I), were used over the three periods. In Regimen G, belumosudil was administered in Tablet form (reference); and in Regimens H and I, belumosudil was administered in the form of Oral Liquid Formulation. […]
measureName: Tmax (h)

>  <compound>
O=C(O)COc1cccc(-c2nc(Nc3ccc4[nH]ncc4c3)c3ccccc3n2)c1

>  <val>
1.5

$$$$
>  <compound>
CC(C)NC(=O)COc1cccc(-c2nc(Nc3ccc4[nH]ncc4c3)c3ccccc3n2)c1 [Belumosudil, reference compound]

>  <val>
1.5

$$$$

====

Test: Part 2 relative bioavailability and food effect, plasma PK
Format: in vivo, human
Settings: male, human, plasma, po, 200 mg, Regimen I: 200 mg Liquid Formulation, Fed; single oral dose; plasma; geometric mean (CV%), individual values where n <= 2; read-out: T1/2 (converted)
measureName: half-life (h)

(a) CC(C)NC(=O)COc1cccc(-c2nc(Nc3ccc4[nH]ncc4c3)c3ccccc3n2)c1 [Belumosudil, reference compound]
(b) O=C(O)COc1cccc(-c2nc(Nc3ccc4[nH]ncc4c3)c3ccccc3n2)c1
In: API: POST /compare with a and b ; response names the item with higher half-life. Let me know the label of the one you choose.
Out: a

====

Assay: Part 2 relative bioavailability and food effect, plasma PK
Type: in vivo, human
Settings: male, human, plasma, po, 200 mg, Regimen G: 200 mg Tablet, Fed; single oral dose; plasma; geometric mean (CV%); read-out: AUC (0-last)
measureName: AUC(0-t) (ng·h/mL)

(1) CC(C)NC(=O)COc1cccc(-c2nc(Nc3ccc4[nH]ncc4c3)c3ccccc3n2)c1 [Belumosudil, reference compound]
(2) O=C(O)COc1cccc(-c2nc(Nc3ccc4[nH]ncc4c3)c3ccccc3n2)c1 [KD025m2]
In: Between 1 and 2 , which one has the lower reported AUC(0-t) value? Let me know the label of the one you choose.
Out: 2
(2: 1200 ng·h/mL, 1: 9720 ng·h/mL)

====

Experiment: Part 2 relative bioavailability and food effect, plasma PK
Type: in vivo, human
Conditions: male, human, plasma, po, 200 mg, Regimen I: 200 mg Liquid Formulation, Fed; single oral dose; plasma; geometric mean (CV%); read-out: AUC (0-24)
measureName: AUC(0-t) (ng·h/mL)

(A) O=C(O)COc1cccc(-c2nc(Nc3ccc4[nH]ncc4c3)c3ccccc3n2)c1
(B) CC(C)NC(=O)COc1cccc(-c2nc(Nc3ccc4[nH]ncc4c3)c3ccccc3n2)c1 [Belumosudil, reference compound]
In: API: POST /compare with A and B ; response names the item with higher AUC(0-t). Let me know the label of the one you choose.
Out: B
(B: 9340 ng·h/mL, A: 1180 ng·h/mL)

====

Assay: Part 2 relative bioavailability and food effect, plasma PK
Format: in vivo, human
Details: male, human, plasma, po, 200 mg, Regimen I: 200 mg Liquid Formulation, Fed; single oral dose, healthy male volunteers; plasma; median (range); read-out: Tmax
Protocol: Subjects underwent preliminary screening procedures to determine their eligibility for Part 2 of the study at the screening visit (Day −28 to Day −2 of Part 2). Subjects who took part in Part 1 of the study were permitted to take part in Part 2. Three different regimens (G, H, and I), were used over the three periods. In Regimen G, belumosudil was administered in Tablet form (reference); and in Regimens H and I, belumosudil was administered in the form of Oral Liquid Formulation. […]
measureName: Tmax (h)
The figure you give is taken to be in h; do not add the unit.

In: Give the measured Tmax of "O=C(O)COc1cccc(-c2nc(Nc3ccc4[nH]ncc4c3)c3ccccc3n2)c1" .
Out: 2

====

Test: Part 2 relative bioavailability and food effect, plasma PK
Assay type: in vivo, human
Conditions: male, human, plasma, po, 200 mg, Regimen G: 200 mg Tablet, Fed; single oral dose; plasma; geometric mean (CV%); read-out: Vz/F
measureName: Vd/F (L)
The figure you give is taken to be in L; do not add the unit.

In: Give the measured Vd/F of CC(C)NC(=O)COc1cccc(-c2nc(Nc3ccc4[nH]ncc4c3)c3ccccc3n2)c1 [Belumosudil, reference compound] .
Out: 265

====

Assay: Part 2 relative bioavailability and food effect, plasma PK
Type: in vivo, human
Settings: male, human, plasma, oral, 200 mg, Regimen I, liquid formulation fed; read-out: elimination half-lives (range)
measureName: half-life

In: Give the measured half-life of CC(C)NC(=O)COc1cccc(-c2nc(Nc3ccc4[nH]ncc4c3)c3ccccc3n2)c1 [Belumosudil, reference compound] .
Out: 143 to 944 min

====

Assay: Part 2 relative bioavailability and food effect, plasma PK
Type: in vivo, human
Settings: male, human, plasma, po, 200 mg, Regimen G: 200 mg Tablet, Fed; single oral dose; plasma; geometric mean (CV%)
measureName: AUC(0-inf) (ng·h/mL)

(I) O=C(O)COc1cccc(-c2nc(Nc3ccc4[nH]ncc4c3)c3ccccc3n2)c1
(II) CC(C)NC(=O)COc1cccc(-c2nc(Nc3ccc4[nH]ncc4c3)c3ccccc3n2)c1 [Belumosudil, reference compound]
In: API: POST /compare with I and II ; response names the item with higher AUC(0-inf). Let me know the label of the one you choose.
Out: II
